- experimental-system: Human AMPK α2β2γ1 (Homo sapiens, UniProt O43741+P54646)
- Construct: The full length cDNAs of human AMPK P2 (NM_005399.3) and human AMPK α2 (NM_006252.3); 6×His (N); made in house; host or cells: Escherichia coli BL21 CodonPlus (DE3)-RIL
- Sequence (P54646 whole entry): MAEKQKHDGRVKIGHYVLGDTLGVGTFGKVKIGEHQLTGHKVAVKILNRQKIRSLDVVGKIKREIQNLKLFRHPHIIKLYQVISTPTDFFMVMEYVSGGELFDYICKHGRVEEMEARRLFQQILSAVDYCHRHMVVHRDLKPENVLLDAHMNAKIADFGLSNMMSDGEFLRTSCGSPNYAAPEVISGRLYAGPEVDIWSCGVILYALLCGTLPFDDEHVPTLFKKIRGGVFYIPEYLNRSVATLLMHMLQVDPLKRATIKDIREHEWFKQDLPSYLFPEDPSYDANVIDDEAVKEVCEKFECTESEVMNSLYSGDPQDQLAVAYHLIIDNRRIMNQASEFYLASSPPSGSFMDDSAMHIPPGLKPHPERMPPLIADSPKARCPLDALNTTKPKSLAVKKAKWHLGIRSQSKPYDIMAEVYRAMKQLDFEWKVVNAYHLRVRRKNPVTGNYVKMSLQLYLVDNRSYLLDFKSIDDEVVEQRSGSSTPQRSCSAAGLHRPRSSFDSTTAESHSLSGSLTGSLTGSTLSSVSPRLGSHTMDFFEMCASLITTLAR
- Sequence (O43741 whole entry): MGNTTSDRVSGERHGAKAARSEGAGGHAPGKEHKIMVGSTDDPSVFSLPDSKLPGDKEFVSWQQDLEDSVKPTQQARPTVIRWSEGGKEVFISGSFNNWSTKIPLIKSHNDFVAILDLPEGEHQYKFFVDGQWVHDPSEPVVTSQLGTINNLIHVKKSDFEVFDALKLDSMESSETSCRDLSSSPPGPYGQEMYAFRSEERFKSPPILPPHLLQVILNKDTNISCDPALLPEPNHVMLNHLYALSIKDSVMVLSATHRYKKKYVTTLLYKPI
- Sequence (P54619 whole entry partner): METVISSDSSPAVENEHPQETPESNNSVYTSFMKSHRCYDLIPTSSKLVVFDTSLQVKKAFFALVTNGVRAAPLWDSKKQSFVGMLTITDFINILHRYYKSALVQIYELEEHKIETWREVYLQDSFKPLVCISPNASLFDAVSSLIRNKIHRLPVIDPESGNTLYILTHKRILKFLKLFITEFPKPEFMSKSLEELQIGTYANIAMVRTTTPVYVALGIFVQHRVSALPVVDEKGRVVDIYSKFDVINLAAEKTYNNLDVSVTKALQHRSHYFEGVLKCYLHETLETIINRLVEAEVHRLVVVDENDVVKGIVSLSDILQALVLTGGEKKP
- assay-procedure: AMPK activator evaluation, Test Example 2 (CaMKK2-phosphorylated enzyme, mobility shift)
- Assay type: biochemical
- setup-conditions: human AMPK α2β2γ1 phosphorylated with CaMKK2, control = 100%; read-out: Emax (maximum rate of increase in activity within the measurement range)
Please note: criterion met applies when Emax is 400% or greater, and criterion not met applies otherwise.

>  <compound>
CC(=O)NC(C)(C)c1ccc(Oc2nc3nc(-c4ccc(N5CCC(O)C5)cc4)c(Cl)cc3[nH]2)cc1 (centres unmarked)

>  <assigned-category>
criterion met

$$$$
>  <compound>
O=C(O)C1(c2ccc(Oc3nc4nc(-c5ccc(N6CCCC6)cc5)c(Cl)cc4[nH]3)cc2)CC1

>  <assigned-category>
criterion not met

$$$$
>  <compound>
Cc1ccc(Oc2nc3nc(-c4ccc(N5CCOCC5)cc4)c(Cl)cc3[nH]2)cn1

>  <assigned-category>
criterion not met

$$$$
>  <compound>
O=C(O)c1ccc(Oc2nc3nc(-c4ccc(N5CCOCC5)cc4)c(Cl)cc3[nH]2)cc1

>  <assigned-category>
criterion not met

$$$$

Cited source for all entries: patent US9133186B2
